Tested on: NCI-H226 lung
Assay: NCI tumour cell line growth inhibition, 48 h
readout: TGI

stdin: // query TGI value for entry N#CCC(=O)NC1C2CC3CC(C2)CC1C3 (stereo not drawn)
stdout: 48.5 µM

stdin: // query TGI value for entry Cc1ccc2c(c1)C1(C)OC(C=CC1=O)O2 (stereo not drawn)
stdout: 7.94 µM

stdin: // query TGI value for entry Cc1ccc(S(=O)(=O)OC(c2ccc(Cl)cc2Cl)C2OC(=O)c3ccccc32)cc1 (stereo not drawn)
stdout: > 100 µM

stdin: // query TGI value for entry "COc1cc2c3c(n(C)c(=O)c2cc1OC)-c1cc2c(cc1/C3=C\CNCCCN)OCO2"
stdout: 0.797 µM

stdin: // query TGI value for entry C=C(CC[C@@H](C)[C@H]1CC[C@@]2(C)C3=C(CC[C@]12C)[C@@]1(C)CC[C@H](O)[C@@H](C)C1CC3)C(C)C (stereo partly drawn)
stdout: 5.01 µM

stdin: // query TGI value for entry "CCO/N=C(/N)c1ncn(Cc2ccccc2)c1NCC(OCC)OCC"
stdout: > 100 µM

stdin: // query TGI value for entry COC(=O)[C@H](Cc1c[nH]c2ccccc12)NC(=O)[C@@H](OC)[C@@H]1Cc2cc3cc(OC4CC(OC5CC(O)C(O)C(C)O5)C(O)C(C)O4)c(C)c(O)c3c(O)c2C(=O)[C@H]1OC1CC(OC2CC(OC3CC(C)(O)C(O)C(C)O3)C(O)C(C)O2)C(O)C(C)O1 (stereo partly drawn)
stdout: 0.145 µM

stdin: // query TGI value for entry COC(C(O)c1ccc2c(c1)OCO2)P(=O)(c1ccccc1)c1ccccc1 (stereo not drawn)
stdout: > 100 µM

stdin: // query TGI value for entry "Cc1ccc(C)c(COCCOCn2ccc(N)nc2=O)c1"
stdout: > 100 µM

stdin: // query TGI value for entry COc1cc2c(c(OC)c1)C1(CC(CC#N)C2)SCCS1 (stereo not drawn)
stdout: > 100 µM

stdin: // query TGI value for entry "Cn1c2ccccc2c2c3[nH]c(=O)[nH]c(=O)c3c3c4ccccc4n(C)c3c21"
stdout: 5.37 µM

stdin: // query TGI value for entry O=C1CCCCC2N(C(c3ccccc3)c3ccccc3)CC[C@@]12c1ccccc1 (mixture of isomers)
stdout: > 10 µM

stdin: // query TGI value for entry "COc1cc2c(cc1OC)CCc1cc(OC)c(OC)cc1CC2"
stdout: > 100 µM

stdin: // query TGI value for entry "CC(=O)N[C@@H](Cc1ccc(O)cn1)C(=O)NCc1cccc(Cl)c1"
stdout: > 100 µM

stdin: // query TGI value for entry "CNc1nc2n(CCO)c(-c3ccccc3)c(-c3ccccc3)nc-2c(=O)n1"
stdout: > 50 µM

stdin: // query TGI value for entry "Cc1ccc(NC(=O)NCCCOc2ccc(N3C(N)=NC(N)=NC3(C)C)cc2Cl)cc1S(=O)(=O)F"
stdout: > 100 µM

stdin: // query TGI value for entry "COc1ccc(CCN2CCN(CCc3ccc(OC)cc3)CC2)cc1"
stdout: > 100 µM

stdin: // query TGI value for entry CCCCCCC(=O)C/C(=N/NC(N)=S)C(=O)NC1C2CC3CC(C2)CC1C3 (stereo not drawn)
stdout: > 100 µM

stdin: // query TGI value for entry "Cc1[nH]n(C2=NCCN2)c(=O)c1Cc1ccccc1"
stdout: > 100 µM

stdin: // query TGI value for entry NC(CCC(=O)O)C(=O)N1CCN(c2nc(N3CCCC3)c3nc(Cl)c(NCc4ccccc4)nc3n2)CC1 (stereo not drawn)
stdout: 32.9 µM

stdin: // query TGI value for entry "COc1cc2c3c(n(CCNCCCNCCn4c5c(c6cc(OC)c(OC)cc6c4=O)C(=O)c4ccccc4-5)c(=O)c2cc1OC)-c1ccccc1C3=O"
stdout: 3.04 µM

stdin: // query TGI value for entry O=c1[nH]c(=O)n(C2OC(CO)C(O)C(O)C2O)cc1F (stereo not drawn)
stdout: > 100 µM

stdin: // query TGI value for entry "c1cc2c(ncc3cscc32)s1"
stdout: > 100 µM

stdin: // query TGI value for entry O=C1CCCC2(c3ccccc3)Nc3ccccc3N12 (stereo not drawn)
stdout: > 100 µM

stdin: // query TGI value for entry "Cc1nc2ccccc2n1C(=O)c1c(F)c(F)c(F)c(F)c1F"
stdout: 65.5 µM

stdin: // query TGI value for entry C=C(C)C(=O)OC1CCC2(C)C(CCC3C2CCC2(C)C(c4ccc(=O)oc4)CC4OC432)C1 (stereo not drawn)
stdout: 48.1 µM

stdin: // query TGI value for entry "C=C1CC[C@H](O)C(C)(C)[C@@H]1CC/C(C)=C/CC/C=C(\C)CC/C=C(\C)CCC=C(C)C"
stdout: > 100 µM

stdin: // query TGI value for entry "CCn1c(SCC(=O)NNC(=S)Nc2ccc(C)cc2)nc2ccccc2c1=O"
stdout: > 100 µM

stdin: // query TGI value for entry "CSC1=N/C(=C\c2ccccc2)C(=O)N1CN1CCCCC1"
stdout: > 100 µM

stdin: // query TGI value for entry "C=C1C(=O)O[C@H]2[C@H]1CC/C(COC(=O)c1cc3ccccc3s1)=C\CC[C@@]1(C)O[C@@H]21"
stdout: 4.63 µM

stdin: // query TGI value for entry CC(C)CCCC(=O)CCCCCCC(=O)CCN(O)C(=O)C(N)CO (stereo not drawn)
stdout: 35.6 µM

stdin: // query TGI value for entry "COc1cc2c3c(n(CCCCOC(=O)C(Cl)(Cl)Cl)c(=O)c2cc1OC)-c1cc2c(cc1C3=O)OCO2"
stdout: > 100 µM

stdin: // query TGI value for entry "CC(C)=CC(=O)C[C@H]1C(=O)O[C@@H]2C[C@H]3C(C)=CC(=O)[C@@H](O)[C@]3(C)[C@H]3[C@@]4(O)OC[C@]32[C@@H]1[C@@H](C)[C@H]4O"
stdout: < 0.0156 µM

stdin: // query TGI value for entry "Cc1ccc(NC(=O)c2cccc(OP(=O)(O)Nc3ccc(C)cc3)c2)cc1"
stdout: > 100 µM

stdin: // query TGI value for entry "NC(=S)Nc1ccc(S(=O)(=O)Nc2ccc(S(N)(=O)=O)cc2)cc1"
stdout: > 100 µM

stdin: // query TGI value for entry "CCC(=O)c1c(C(F)(F)F)n([O-])c2ccc(C)cc2[n+]1=O"
stdout: > 50 µM

stdin: // query TGI value for entry "O=C(O)[C@@H]1CCCCN1Cc1cc2cc3c(cc2c2cc(OCc4ccccc4)ccc12)OCO3"
stdout: 5.7 µM

stdin: // query TGI value for entry "COc1ccc(OC)c(C(=O)c2oc3ccc(Br)cc3c2N)c1"
stdout: > 100 µM
